For each of the compounds below, state its TGI.
Tested on: DU-145 prostate
Assay: NCI tumour cell line growth inhibition, 48 h

Below are worked cases with known answers.
[[record]]
compound = "CCOc1ccc(/C=C2\\NC(=S)N(/C=C3\\C(=O)Oc4ccccc4C3=O)C2=O)cc1"
endpoint = "TGI"
measurement = "57.7 µM"

[[record]]
compound = "CCC1(NC(=O)c2cc(F)c(F)c(F)c2F)C(=O)NC(=O)N(C(C)C)C1=O (stereo not given)"
endpoint = "TGI"
measurement = "> 100 µM"


Each of the following entries comes with a recorded value; kindly state TGI for each.
1. COC(=O)c1ccccc1C1=C([N+](=O)[O-])C(c2ccccc2)C(C#N)=C(N)O1 (stereo not given)
2. COc1cc(OC2OC(COC(=O)c3cc(O)c(O)c(O)c3)C(O)C(O)C2O)ccc1O (stereo not given)
3. COc1cc(F)c(/C=C/c2cc(/C=C/c3cc(OC)c(OC)cc3F)n(-c3cc(F)cc(F)c3)n2)cc1OC
4. CC(C)C[C@H](NC(=O)CCn1ccc2ncccc2c1=O)B(O)O
5. Cc1cc(O)cc(O)c1C(=O)O[C@]1(C)C(=O)C=C2C=C(/C=C/C(=O)O)OC=C2C1=O

Result:
1. > 100 µM
2. > 100 µM
3. 18.1 µM
4. > 100 µM
5. > 100 µM

Provide each entry's TGI from the list below.
1. c1csc(-c2ccsc2-c2ccsc2)c1
2. O=C(C(Cl)=C(N1CCCCC1)N1CCCCC1)C(Cl)Cl
3. CCOC(=O)C(=O)CC(=O)C1=C(c2ccccc2OC)CC(c2cccs2)=CC1=O
4. Cc1cc(C)c(S(=O)(=O)N(CCc2cccc(Br)c2)Cc2ccc(-c3cccc(S(C)(=O)=O)c3)cc2)c(C)c1
5. Clc1ccc(CNc2nccc(-c3cnn4ncccc34)n2)cc1

Result:
1. > 100 µM
2. > 100 µM
3. > 100 µM
4. > 100 µM
5. > 25 µM

Can you give me TGI for all of these, one by one?
1. CCOC(=O)C(NC(=O)CC)(Nc1ccc(F)c(Cl)c1)C(F)(F)F (stereo not given)
2. COc1cc(NC(=O)NCc2ccco2)ccc1-c1ccc(NC(=O)NCc2ccco2)cc1OC
3. O=c1oc2c3ccc4cnccc4c3[nH]c2c2ccccc12
4. C=C1C(OC/C=C/COC2O[C@@H]3O[C@@]4(C)CC[C@H]5[C@H](C)CC[C@@H](C2=C)[C@@]35OO4)O[C@@H]2O[C@@]3(C)CC[C@H]4[C@H](C)CC[C@@H]1[C@@]24OO3 (stereo not given in full)
5. CCCN(CCC)C1CCc2c(ccc3cc[nH]c23)C1 (stereo not given)
6. O=C(N/N=C/c1ccc(Cl)cc1Cl)c1ccc2nc(-c3ccc(Cl)cc3)[nH]c2c1
7. CC12CCC(C(=Nc3cc(C(F)(F)F)cc(C(F)(F)F)c3)C1=O)C2(C)C (stereo not given)
8. COc1cccc(C2SC(C)C(=O)N2CCc2cccs2)c1 (stereo not given)

Result:
["> 100 µM", "> 100 µM", "32.9 µM", "37.6 µM", "> 100 µM", "3.44 µM", "> 100 µM", "14.9 µM"]

I need TGI for every entry listed below, if you could help.
1. Cc1c(O)c(OC2OC(CO)C(O)C(O)C2O)cc2c1C=C[C@@H]1[C@@]2(C)C(=O)C[C@]2(C)[C@@H]([C@@](C)(O)C(=O)CCC(C)(C)O)[C@H](O)C[C@@]12C (stereo not given in full)
2. CCCc1nnc2sc(COc3cc(Cl)c(OCc4nn5c(CCC)nnc5s4)cc3Cl)nn12
3. CC1(C)CC([P+](c2ccccc2)(c2ccccc2)c2ccccc2)=NN1
4. Cc1cc(N(CCC#N)CCC#N)ccc1/C=C1\SC(=S)NC1=O
5. CN(C)CC1CCC/C(=C\c2ccc(OC(=O)/C=C/c3ccc(Cl)c(Cl)c3)cc2)C1=O (stereo not given)

Result:
56.6 µM
> 100 µM
> 100 µM
> 100 µM
> 93.3 µM
